The reported measurements were obtained from patent US7915291B2.

testedSystem: HCV NS3/4A protease complex, BMS strain (UniProt P27958, C1454S/C1711G, species not given/STRAIN_BMS)
testName: Recombinant HCV NS3/4A protease complex FRET peptide assay (BMS strain)
Type: biochemical, HCV genotype 1a
details: NS3/4A BMS strain; read-out: IC50 range
propertyMeasured: IC50

Study these solved cases before continuing.
C=C[C@@H]1C[C@]1(NC(=O)[C@@H]1C[C@@H](Oc2ccnc(-c3ccc(F)cc3)c2)CN1C(=O)[C@@H](NC(=O)OC1CCCC1)C(C)(C)C)C(=O)NS(=O)(=O)C1CC1; < 100 nM
C=C[C@@H]1C[C@]1(NC(=O)[C@@H]1C[C@@H](Oc2nccc3ccc(OC)cc23)CN1C(=O)[C@@H](NC(=O)OC(C)(C)C)C(C)(C)C)C(=O)NS(=O)(=O)C1CC1; < 100 nM
C=CC1C[C@]1(NC(=O)[C@@H]1C[C@@H](Oc2nnc(O)c3ccccc23)CN1C(=O)[C@@H](NC(=O)OC(C)(C)C)C(C)(C)C)C(=O)NS(=O)(=O)C1CC1 (stereo partly shown); < 100 nM
C=C[C@@H]1C[C@]1(NC(=O)[C@@H]1C[C@@H](Oc2nccc3c(OC)cccc23)CN1C(=O)[C@@H](NC(=O)OC(C)(C)C)C(C)(C)C)C(=O)NS(=O)(=O)C1CC1; < 100 nM
C=CC1C[C@]1(NC(=O)[C@@H]1C[C@@H](Oc2nc(-c3ccc(N(CC)CC)cc3)cc3cc(OC)ccc23)CN1C(=O)[C@@H](NC(=O)OC(C)(C)C)C(C)(C)C)C(=O)NS(=O)(=O)C1CC1 (stereo partly shown); < 100 nM

Qu. // IC50 lookup, key: C=C[C@@H]1C[C@]1(NC(=O)[C@@H]1C[C@@H](Oc2ccnc(Br)c2)CN1C(=O)[C@@H](NC(=O)OC1CCCC1)C(C)(C)C)C(=O)NS(=O)(=O)C1CC1
Ans. 100 to 1000 nM

Qu. // IC50 lookup, key: C=C[C@@H]1C[C@]1(NC(=O)[C@@H]1C[C@@H](Oc2cncc(-c3ccncc3)c2)CN1C(=O)[C@@H](NC(=O)OC(C)(C)C)C(C)(C)C)C(=O)NS(=O)(=O)C1CC1
Ans. < 100 nM

Qu. // IC50 lookup, key: C=C[C@@H]1C[C@]1(NC(=O)[C@@H]1CC(Oc2nc(-c3ccccc3)cc3ccccc23)CN1C(=O)[C@@H](NC(=O)OC(C)(C)C)[C@H](C)OCC)C(=O)NS(=O)(=O)C1CC1 (stereo partly shown)
Ans. < 100 nM

Qu. // IC50 lookup, key: C=CC1C[C@]1(NC(=O)[C@@H]1C[C@@H](COc2cccc(-c3cccs3)n2)CN1C(=O)[C@@H](NC(=O)OC)C(C)(C)C)C(=O)NS(=O)(=O)C1CC1 (stereo partly shown)
Ans. 100 to 1000 nM

Qu. // IC50 lookup, key: C=C[C@@H]1C[C@]1(NC(=O)[C@@H]1C[C@@H](Oc2nccc3cc(OC)ccc23)CN1C(=O)[C@H](CC(=O)OC(C)(C)C)NC(=O)OC(C)(C)C)C(=O)NS(=O)(=O)C1CC1
Ans. < 100 nM
